Value source: the NIST ThermoML archive (doi:10.1016/j.fluid.2016.02.009)

# mass density annotations
conditions: 303.15 K; 45000 kPa; Liquid; Vibrating tube method
result.type: mass density (kg/m3)

[[record]]
compound_structure_string = "CCOC(C)(C)C"
result_type = "mass density"
numeric_value = 773.86

[[record]]
compound_structure_string = "COC(C)(C)C"
result_type = "mass density"
numeric_value = 773.65

[[record]]
compound_structure_string = "CCCCOCC"
result_type = "mass density"
numeric_value = 779.71

[[record]]
compound_structure_string = "CC(C)OC(C)C"
result_type = "mass density"
numeric_value = 759.12

[[record]]
compound_structure_string = "CCCCOC"
result_type = "mass density"
numeric_value = 776.46

[[record]]
compound_structure_string = "CCCOCCC"
result_type = "mass density"
numeric_value = 778.13

[[record]]
compound_structure_string = "CCCCCOCCCCC"
result_type = "mass density"
numeric_value = 806.86

[[record]]
compound_structure_string = "CC(C)CCOCCC(C)C"
result_type = "mass density"
numeric_value = 800.34

